meta.source: PubChem BioAssay AID2060499

# Test system: 777334-354-R2-J4-PDC tumor spheroids with HUVEC/MSC, viability;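 note: spheroids exposed to compounds for 7 days before readout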
# procedure-details: Anticancer human tumor 777334-354-R2-J4-PDC patient-derived pancreatic adenocarcinoma cell line growth inhibition [GQUAD]
# assay-context: second compound 1 µM; first compound 0.0316 µM; stronger effect = lower value
property-label: viability, T/C (%)
// note: answer is a bare numeric in %

For orientation, consider the following solved cases.
| molecule | property-label | reading-unit | observed |
| --- | --- | --- | --- |
| O=C(NO)c1cnc(N2CCN(S(=O)(=O)c3ccc4ccccc4c3)CC2)nc1 + CN(C)c1ccc(Nc2c3ccc(NC(=O)CCN4CCCC4)cc3nc3cc(NC(=O)CCN4CCCC4)ccc23)cc1 | viability, T/C | % | 84.3 |
| C=CC(=O)N1CCN(c2nc(=O)n(-c3c(C)ccnc3C(C)C)c3nc(-c4c(O)cccc4F)c(F)cc23)C(C)C1 (stereo not given) + Cc1cnc(CNC(=O)c2c(=O)c3ccc(N4CCCN(C)CC4)nc3n3c2sc2ccccc23)cn1 | viability, T/C | % | 73.7 |

# input Which viability, T/C value is on record for CCc1c2c(nc3ccc(O)cc13)-c1cc3c(c(=O)n1C2)COC(=O)[C@]3(O)CC + CN(C)c1ccc(Nc2c3ccc(NC(=O)CCN4CCCC4)cc3nc3cc(NC(=O)CCN4CCCC4)ccc23)cc1 ?
# output 23.9

# input Can you share its viability, T/C? I mean this molecule: CC1COCCN1c1cc(C2(O)CC3CCC(C2)O3)c2cnn(-c3ccn[nH]3)c2n1 (stereo not given) + CN(C)c1ccc(Nc2c3ccc(NC(=O)CCN4CCCC4)cc3nc3cc(NC(=O)CCN4CCCC4)ccc23)cc1
# output 83

# input # viability, T/C lookup, item CCCS(=O)(=O)Nc1ccc(F)c(C(=O)c2c[nH]c3ncc(-c4ccc(Cl)cc4)cc23)c1F + Cc1[nH]c2ccc(F)cc2c1-c1nc2c3cccnc3c3ncccc3c2[nH]1
# output 79.8
